- system under test: T1, Biotinylated CD3-specific binding domain SEQ ID NO: 13 (biotinylated (site not stated))
- T1 construct: Ligand on the neutravidin (NLC) SPR chip; The same domain is the CD3-specific domain of TCE #1
- T1 chain: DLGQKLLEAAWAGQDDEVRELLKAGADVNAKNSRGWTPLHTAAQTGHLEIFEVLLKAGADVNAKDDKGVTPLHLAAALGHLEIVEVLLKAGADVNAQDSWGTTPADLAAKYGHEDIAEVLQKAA
- experiment summary: SPR (ProteOn XPR36), 33 C, multi-trace; biotinylated ligand on chip, binder as analyte
Recorded koff values for a group of binders are listed next.
Please state the figure in s⁻¹; there is no need to write the unit.

Guide cases for koff, answers given:
Kindly indicate its recorded koff. Item: Binder #4 (designed binder) MRGSHHHHHHGSDLGKKLLQAARAGQLDEVRELLKAGADVNAKDFKGLTPLHLAAEHGHLEIVEVLLKAGADVNAKDVYGWTPLHWAAAKGHLEIVEVLLKAGADVNAKDWLGITPLHLAASHGHLEIVEVLLKAGADVNAQDKSGKTPADLAARAGHQDIAEVLQKAA
1.9e-05

// fetch koff given entry Binder #2 (designed binder) MRGSHHHHHHGSDLGKKLLQAARAGQLDEVRELLKAGADVNAKDFKGLTPLHLAAAHGHLEIVEVLLKAGADVNAKDVYGWTPLHWAAASGHLEIVEVLLKAGADVNAKDWLGITPLHLAASHGHLEIVEVLLKAGADVNAQDKSGKTPADLAARAGHQDIAEVLQKAA
4e-05

Attention now shifts to the item below.
Identify measured koff corresponding to Binder #1 (designed binder, expressed in E. coli and purified by its His-tag) MRGSHHHHHHGSDLGKKLLQAARAGQLDEVRELLKAGADVNAKDFKGLTPLHLAAAHGHLEIVEVLLKAGADVNAKDVYGWTPLHIAAASGHLEIVEVLLKAGADVNAKDWLGITPLHLAASHGHLEIVEVLLKAGADVNAQDKSGKTPADLAARAGHQDIAEVLQKAA
6.2e-05
